- Test system: AsPC-1 pancreatic cancer cells
- METHOD: In vitro cytotoxicity (MTS, 72 h) AsPC-1
- Format: cell-based, human
- CONDITION CONTEXT: 72 h incubation, Dox Equiv. concentration

COMPOUND	UNIT DESCRIPTOR	IC50
COc1cccc2c1C(=O)c1c(O)c3c(c(O)c1C2=O)C[C@@](O)(C(=O)CO)C[C@@H]3O[C@H]1C[C@H](N)[C@H](O)[C@H](C)O1 [free Dox, Doxorubicin, reference compound]	µM	2.5
